// self-splicing fitness (ln) lookup, one value per entry
Assay Text: self-splicing fitness, log relative to wild type (ln ratio); higher = more splicing; Tetrahymena group I intron in knt gene, E. coli kanamycin selection, DiMSum; sequences stand for … in CUCUCU…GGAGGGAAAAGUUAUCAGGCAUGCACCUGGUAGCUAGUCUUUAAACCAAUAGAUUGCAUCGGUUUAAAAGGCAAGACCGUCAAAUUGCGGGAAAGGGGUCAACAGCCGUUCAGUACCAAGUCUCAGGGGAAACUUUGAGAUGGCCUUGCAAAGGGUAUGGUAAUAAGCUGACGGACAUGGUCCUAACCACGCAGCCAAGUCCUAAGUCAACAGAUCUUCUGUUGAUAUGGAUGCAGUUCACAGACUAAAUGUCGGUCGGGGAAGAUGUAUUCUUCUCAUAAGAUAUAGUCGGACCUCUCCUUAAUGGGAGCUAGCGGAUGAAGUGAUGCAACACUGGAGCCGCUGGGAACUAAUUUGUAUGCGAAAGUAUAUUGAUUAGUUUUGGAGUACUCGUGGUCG;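 further: selection with 25 µg/mL kanamycin versus none on LB agar overnight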
Details: 37 °C

Illustrative cases are given below, each with its answer.
Seq Text	self-splicing fitness (ln)
CCAGAGCAAUAUUACGGCUA	-2.94
GGCUAGCAAUAUUACGAAAU	0.0518
AAGCAGCAAUAUUACGAUGU	-0.566
GUGCAGCAAUAUUACGGAAA	-1.63
ACGUAGCAAUAUUACGCCGG	-0.915

For UCCAAGCAAUAUUACGGUUC , what is its reported self-splicing fitness (ln)?
-2.56

Report self-splicing fitness (ln) for GGGUAGCAAUAUUACGGGAA please.
-1.86

Any idea what self-splicing fitness (ln) was measured for ACCUAGCAAUAUUACGGACG ?
-0.114

Find the recorded self-splicing fitness (ln) belonging to GUAUAGCAAUAUUACGAUGG and report it.
-0.958

Any idea what its self-splicing fitness (ln) is? The sequence is GAGGAGCAAUAUUACGCACG
-0.155

May I ask what self-splicing fitness (ln) has been recorded for UCAAAGCAAUAUUACGAGGC ?
-2.69

Suppose we examine the sequence UCACAGCAAUAUUACGUCUC ; what self-splicing fitness (ln) value has been reported?
-1.77
